Each item that follows carries a reported CC50.
# TEST: Cytotoxicity against human PM1 cells harboring CCR5 co-receptor by WST-8 assay
# Assay type: cell-based

>  <COMPOUND>
Cc1cc(C)c2cc(C(=O)NC3CC(C)(C)NC(C)(C)C3)n(C)c2c1

>  <CC50>
> 37.5 µM

$$$$
>  <COMPOUND>
O=C(NC1CC2(CCCCC2)NC2(CCCCC2)C1)c1cc2cc3c(cc2[nH]1)OCO3 (centres undefined)

>  <CC50>
> 100 µM

$$$$
>  <COMPOUND>
O=C(CNc1ccc(Cl)cc1)NC1CC2(CCCCC2)NC2(CCCCC2)C1 (centres undefined)

>  <CC50>
> 100 µM

$$$$
>  <COMPOUND>
Cc1cc(C)c2cc(C(=O)NC3CC4(CCCCC4)NC4(CCCCC4)C3)n(C)c2c1 (centres undefined)

>  <CC50>
> 13.5 µM

$$$$

###

# TESTED SYSTEM: Envelope glycoprotein gp160 (Human immunodeficiency virus 1) (UniProt Q6QLK5)
# Sequence (Q6QLK5 1-814): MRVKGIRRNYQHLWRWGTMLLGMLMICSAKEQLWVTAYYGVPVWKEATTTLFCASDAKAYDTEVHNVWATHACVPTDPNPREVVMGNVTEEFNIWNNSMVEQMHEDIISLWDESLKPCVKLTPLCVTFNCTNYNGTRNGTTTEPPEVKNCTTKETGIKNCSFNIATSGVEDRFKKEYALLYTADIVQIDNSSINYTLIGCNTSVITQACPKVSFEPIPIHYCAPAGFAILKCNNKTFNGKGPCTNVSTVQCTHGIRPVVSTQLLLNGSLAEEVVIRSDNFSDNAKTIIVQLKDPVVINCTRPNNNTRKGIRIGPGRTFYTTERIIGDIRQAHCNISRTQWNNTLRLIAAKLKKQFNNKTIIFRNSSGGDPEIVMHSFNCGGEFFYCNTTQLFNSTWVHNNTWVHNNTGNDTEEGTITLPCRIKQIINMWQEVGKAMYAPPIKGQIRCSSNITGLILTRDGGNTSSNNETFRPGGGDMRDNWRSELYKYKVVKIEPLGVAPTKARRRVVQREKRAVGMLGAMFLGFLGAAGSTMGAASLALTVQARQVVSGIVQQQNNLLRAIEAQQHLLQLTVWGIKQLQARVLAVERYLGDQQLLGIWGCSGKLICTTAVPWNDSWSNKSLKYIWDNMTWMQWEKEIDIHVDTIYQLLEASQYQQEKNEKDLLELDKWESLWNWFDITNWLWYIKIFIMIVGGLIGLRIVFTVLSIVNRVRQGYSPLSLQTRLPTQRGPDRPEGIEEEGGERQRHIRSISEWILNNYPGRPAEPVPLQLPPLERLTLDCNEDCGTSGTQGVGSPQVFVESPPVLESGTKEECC
# TEST: Induction of conformational changes in HIV1 cYTA48P envelope glycoprotein gp120 infected in PM1/CCR5 cells assessed as mean fluorescence intensity using CD4i monoclonal antibody 4C11 at 100 uM after 15 mins by FACS analysis
# Format: cell-based
Readings of Flu intensity for the listed compounds
MEASUREMENT LABEL: Flu intensity

>  <COMPOUND>
O=C(NC1CC2(CCCCC2)NC2(CCCCC2)C1)c1cc2c(F)c(Cl)ccc2[nH]1 (stereo not drawn)

>  <TESTED SYSTEM>
Envelope glycoprotein gp160 (Human immunodeficiency virus 1) (UniProt Q6QLK5)

>  <MEASUREMENT LABEL>
Flu intensity

>  <RECORDED RESULT>
8.05

$$$$
>  <COMPOUND>
CCOC(=O)C1CCN(C(=O)c2cc3c(C)cc(C)cc3n2C)CC1

>  <TESTED SYSTEM>
Envelope glycoprotein gp160 (Human immunodeficiency virus 1) (UniProt Q6QLK5)

>  <MEASUREMENT LABEL>
Flu intensity

>  <RECORDED RESULT>
8.11

$$$$
>  <COMPOUND>
Cn1c(C(=O)NC2CC(C)(C)NC(C)(C)C2)cc2cc(Cl)ccc21

>  <TESTED SYSTEM>
Envelope glycoprotein gp160 (Human immunodeficiency virus 1) (UniProt Q6QLK5)

>  <MEASUREMENT LABEL>
Flu intensity

>  <RECORDED RESULT>
6.65

$$$$

###

# TESTED SYSTEM: UniProt:Q6QLK5
# TEST: Induction of conformational changes in HIV1 cYTA48P envelope glycoprotein gp120 infected in PM1/CCR5 cells assessed as mean fluorescence intensity using CD4i monoclonal antibody 4C11 at 100 uM after 15 mins by FACS analysis relative to NBD-556
# Assay type: cell-based
Short version: fold change (FC) at least 0.3 is 1, less is -1.

>  <MOLECULE>
CCOC(=O)C1CCN(C(=O)c2cc3c(F)c(Cl)ccc3[nH]2)CC1

>  <CLASS ASSIGNMENT>
1

$$$$
>  <MOLECULE>
O=C(NC1CC2(CCCCC2)NC2(CCCCC2)C1)c1cc2c(F)c(Cl)ccc2[nH]1 (stereo not given)

>  <CLASS ASSIGNMENT>
-1

$$$$
>  <MOLECULE>
Cc1cc(C)c2cc(C(=O)NC3CC4(CCCCC4)NC4(CCCCC4)C3)n(C)c2c1 (stereo not given)

>  <CLASS ASSIGNMENT>
-1

$$$$
>  <MOLECULE>
CCOC(=O)C1CCN(C(=O)CNc2ccc(Cl)cc2)CC1

>  <CLASS ASSIGNMENT>
-1

$$$$
>  <MOLECULE>
O=C(NC1CC2(CCCCC2)NC2(CCCCC2)C1)c1cc2cc3c(cc2[nH]1)OCO3 (stereo not given)

>  <CLASS ASSIGNMENT>
1

$$$$
>  <MOLECULE>
CCOC(=O)C1CCN(C(=O)c2cc3c(C)cc(C)cc3[nH]2)CC1

>  <CLASS ASSIGNMENT>
1

$$$$
>  <MOLECULE>
CC1(C)CC(NC(=O)c2cc3cc4c(cc3[nH]2)OCO4)CC(C)(C)N1

>  <CLASS ASSIGNMENT>
-1

$$$$
>  <MOLECULE>
CC1(C)CC(NC(=O)c2cc3c(F)c(Cl)ccc3[nH]2)CC(C)(C)N1

>  <CLASS ASSIGNMENT>
1

$$$$
>  <MOLECULE>
CCOC(=O)C1CCN(C(=O)c2cc3c(F)c(Cl)ccc3n2C)CC1

>  <CLASS ASSIGNMENT>
1

$$$$
